molecular target: human DPP-IV (Homo sapiens, UniProt P27487)
Sequence (P27487 31-766): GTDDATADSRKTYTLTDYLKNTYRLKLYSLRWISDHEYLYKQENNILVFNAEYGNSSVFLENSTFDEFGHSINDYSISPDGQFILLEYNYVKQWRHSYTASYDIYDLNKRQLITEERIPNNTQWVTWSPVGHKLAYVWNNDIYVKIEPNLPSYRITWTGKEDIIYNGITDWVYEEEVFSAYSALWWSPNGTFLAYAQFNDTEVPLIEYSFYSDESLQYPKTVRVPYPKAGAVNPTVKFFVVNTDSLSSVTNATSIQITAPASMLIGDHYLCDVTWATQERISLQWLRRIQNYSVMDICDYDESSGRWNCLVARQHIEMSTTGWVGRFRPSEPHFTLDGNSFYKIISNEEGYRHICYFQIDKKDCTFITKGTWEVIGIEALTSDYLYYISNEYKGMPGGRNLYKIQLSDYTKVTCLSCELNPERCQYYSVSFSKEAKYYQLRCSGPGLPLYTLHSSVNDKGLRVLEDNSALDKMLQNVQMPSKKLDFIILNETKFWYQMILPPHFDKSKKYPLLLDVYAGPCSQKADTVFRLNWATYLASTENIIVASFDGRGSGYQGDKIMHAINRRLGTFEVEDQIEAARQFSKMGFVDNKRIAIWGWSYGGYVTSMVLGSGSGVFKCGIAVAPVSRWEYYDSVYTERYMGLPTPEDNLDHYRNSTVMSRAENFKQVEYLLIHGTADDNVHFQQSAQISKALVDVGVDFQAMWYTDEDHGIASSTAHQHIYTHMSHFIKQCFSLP
compounds and their reported IC50

{"columns": ["COMPOUND", "IC50 [nM]"],
 "data": [
  ["COc1cc2c(cc1OC)[C@@H]1C[C@H](N)[C@@H](N3CCC=CC3=O)CN1CC2 (racemic)", 33],
  ["COc1cc2c(cc1OC)[C@@H]1C[C@H](N)[C@@H](N3CCCCS3(=O)=O)CN1CC2", 131],
  ["COc1cc2c(cc1OC)[C@@H]1C[C@H](N)[C@@H](C(=O)N3CCSC3)CN1CC2 (racemic)", 41]
]}
